experimental.system: H-2 D^d (Mus musculus, UniProt P01900)
Sequence (P01900 whole entry, looked up): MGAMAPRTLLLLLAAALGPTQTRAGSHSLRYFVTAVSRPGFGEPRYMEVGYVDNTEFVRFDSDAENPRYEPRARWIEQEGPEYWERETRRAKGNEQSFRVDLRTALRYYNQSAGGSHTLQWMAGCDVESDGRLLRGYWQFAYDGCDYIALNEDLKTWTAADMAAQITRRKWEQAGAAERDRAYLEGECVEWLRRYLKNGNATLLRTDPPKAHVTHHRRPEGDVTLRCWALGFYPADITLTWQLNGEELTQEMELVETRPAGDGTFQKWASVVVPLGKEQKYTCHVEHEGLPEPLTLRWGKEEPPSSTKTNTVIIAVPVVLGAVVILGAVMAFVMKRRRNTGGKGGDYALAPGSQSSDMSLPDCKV
Assay type: binding
measure.name: Normalized average relative binding affinity(ARB)

| record.sequence | measured |
| --- | --- |
| XXXXWXXXX [3064.0099] | 0.098 |

Req: Identify Normalized average relative binding affinity(ARB) associated with the sequence XXXXXXMXX [3064.0131]
Resp: 0.024

Req: Identify Normalized average relative binding affinity(ARB) associated with the sequence XXXXXLXXX [3064.0110]
Resp: 0.54

###

experimental.system: HLA A*3201 (Homo sapiens, UniProt P04439, A270S/D101S/D185E/E176V/E277Q/F133L/G103R/G107R/G231S/H175R/I121M/I218V/I322F/K168Q/L105A/L300P/L318F/M331R/P208A/P217A/Q94H/R106L/R138Q/S129P/T104I/T323A/T345S/V100E/V321M/V358M)
measurement.notes: biochemical
Where a SMILES comes first, the peptide text is derived from it.
# reported pIC50; entries follow
By convention, pIC50 is the negative base-10 log of a molar concentration.

| compound | pIC50 |
| --- | --- |
| CC[C@H](C)[C@H](NC(=O)[C@@H](NC(=O)[C@@H]1CCCN1C(=O)[C@@H](NC(=O)[C@H](Cc1ccccc1)NC(=O)[C@H](CC(N)=O)NC(=O)[C@H](CCSC)NC(=O)[C@@H](NC(=O)[C@@H](N)CO)C(C)C)[C@@H](C)CC)[C@@H](C)CC)C(=O)O [3102.0404] (H-SVMNFIPII-OH) | 9.22 |
| CSCC[C@H](NC(=O)[C@@H](NC(=O)[C@@H](N)CCCCN)[C@@H](C)O)C(=O)N[C@@H](C)C(=O)N[C@H](C(=O)N[C@H](C(=O)N[C@@H](Cc1ccc(O)cc1)C(=O)N[C@@H](CCC(=O)O)C(=O)N[C@@H](CC(C)C)C(=O)O)[C@@H](C)O)C(C)C [3102.0293] (H-KTMAVTYEL-OH) | 9.24 |
| CC[C@H](C)[C@H](NC(=O)[C@H](CO)NC(=O)[C@H](CO)NC(=O)[C@@H](NC(=O)[C@H](CO)NC(=O)[C@H](Cc1ccccc1)NC(=O)[C@@H](NC(=O)[C@@H](N)CO)[C@@H](C)O)[C@@H](C)CC)C(=O)N[C@@H](Cc1ccccc1)C(=O)O [3102.0305] (H-STFSISSIF-OH) | 8.96 |

Alright, here's another compound for you.
Req: Identify pIC50 associated with the compound CC[C@H](C)[C@H](N)C(=O)N[C@@H](CCSC)C(=O)N[C@@H](CCSC)C(=O)N[C@H](C(=O)N[C@@H](CC(C)C)C(=O)N[C@@H](CO)C(=O)N[C@H](C(=O)N[C@H](C(=O)N[C@H](C(=O)O)[C@@H](C)CC)[C@@H](C)CC)[C@@H](C)O)[C@@H](C)CC [3102.0351] (H-IMMILSTII-OH)
Resp: 7.96

###

experimental.system: HLA B*5301 (Homo sapiens, UniProt P01889, A329T/A93T/A95T/C349S/D201E/D98Y/E176V/E187L/E204Q/E69T/G107R/I218V/K202T/L105A/L119I/N104I/Q94N/R106L/R155S/R180L/S101N/S121R/S35A/S48A/T118I/V127L/V306I/V36M/Y140S/Y91F)
Format: binding
Where Normalized average relative binding affinity(ARB) equals or exceeds 0.1, the correct label is true; where it does not, the label is false.

These solved cases illustrate the format of a correct answer.
| record.sequence | category.label |
| --- | --- |
| XXXXFXXXX [3064.0085] | true |
| XXXXXKXXX [3064.0109] | true |
| XXXXXVXXX [3064.0118] | true |
| XXXWXXXXX [3064.0079] | true |
| XXXXXRXXX [3064.0115] | false |
| XXXXXPXXX [3064.0113] | true |
| XXXXXXXFX [3064.0145] | true |
| XXXNXXXXX [3064.0072] | true |
| XXXXAXXXX [3064.0081] | true |
| XXXXXQXXX [3064.0114] | true |

Req: Check if Normalized average relative binding affinity(ARB) >= 0.1 (inclusive). Item: XXXHXXXXX [3064.0067]
Resp: false

Req: Check if Normalized average relative binding affinity(ARB) >= 0.1 (inclusive). Item: XXXXXNXXX [3064.0112]
Resp: true

Req: Check if Normalized average relative binding affinity(ARB) >= 0.1 (inclusive). Item: XXXLXXXXX [3064.0070]
Resp: true

Req: Check if Normalized average relative binding affinity(ARB) >= 0.1 (inclusive). Item: XXXXMXXXX [3064.0091]
Resp: true
